Biological target: Grb2 SH2 (UniProt P62993)
Sequence (P62993 whole entry, looked up, the tested form may be a part): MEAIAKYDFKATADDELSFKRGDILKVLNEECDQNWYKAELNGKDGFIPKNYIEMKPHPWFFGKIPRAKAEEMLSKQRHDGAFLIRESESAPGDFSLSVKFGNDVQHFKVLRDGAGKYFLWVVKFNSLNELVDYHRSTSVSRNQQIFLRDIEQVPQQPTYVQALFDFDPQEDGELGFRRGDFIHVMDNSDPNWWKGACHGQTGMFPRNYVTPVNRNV
Experiment: SH2 binding enrichment of the phosphorylated peptide, bacterial display (enrichment ratio); higher = better substrate or ligand; peptides without Tyr show the background;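 note: peptide library displayed on the E. coli surface as eCPX fusions, selected cells deep-sequenced, score is each peptide's frequency after selection divided by its frequency in the input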
readoutType: SH2 binding enrichment

querySequence: PLFKICVAELI [MRPL28_Y230_Y230C]
assayedSystem: Grb2 SH2 (UniProt P62993)
SH2 binding enrichment: 0.926

querySequence: SIIKDYFHRGT [GATM_Y203_A208T]
assayedSystem: Grb2 SH2 (UniProt P62993)
SH2 binding enrichment: 0.685

querySequence: KHCEDYVCSYN [DSC1_Y846]
assayedSystem: Grb2 SH2 (UniProt P62993)
SH2 binding enrichment: 0.913

querySequence: AQQPIYVRVEG [NLRP7_Y318]
assayedSystem: Grb2 SH2 (UniProt P62993)
SH2 binding enrichment: 0.84

querySequence: IPKTWYSAEQF [CD207_Y217]
assayedSystem: Grb2 SH2 (UniProt P62993)
SH2 binding enrichment: 0.876

querySequence: LEITWYPFDME [RIPOR2_Y316_V320M]
assayedSystem: Grb2 SH2 (UniProt P62993)
SH2 binding enrichment: 0.951

querySequence: LSERGYSFVTT [ACTA2_Y200_T196S]
assayedSystem: Grb2 SH2 (UniProt P62993)
SH2 binding enrichment: 0.806

querySequence: YPPTHYIRRMP [SLC4A11_Y820_V824M]
assayedSystem: Grb2 SH2 (UniProt P62993)
SH2 binding enrichment: 0.875

querySequence: SMGMKYLEEKN [ZAP70_Y451]
assayedSystem: Grb2 SH2 (UniProt P62993)
SH2 binding enrichment: 0.962

querySequence: ILKPDYQPLAV [HYDIN_Y1072_I1077V]
assayedSystem: Grb2 SH2 (UniProt P62993)
SH2 binding enrichment: 0.731

querySequence: EQFELHCEMGS [CBL_Y371_Y371H_YF]
assayedSystem: Grb2 SH2 (UniProt P62993)
SH2 binding enrichment: 0.707

querySequence: NKEAIYSGFIR [SMCHD1_Y283_YF]
assayedSystem: Grb2 SH2 (UniProt P62993)
SH2 binding enrichment: 0.713

querySequence: SNKLYYQLEQE [PDPR_Y110]
assayedSystem: Grb2 SH2 (UniProt P62993)
SH2 binding enrichment: 1.17

querySequence: SRVTQYERDFE [SNX1_Y463]
assayedSystem: Grb2 SH2 (UniProt P62993)
SH2 binding enrichment: 0.854
